I'd be grateful if you could share measured growth for these entries.
- System: NCI-H322M lung
- EXPERIMENT_NOTES: NCI-60 one-dose screen, 48 h (100 = growth as untreated, 0 = no growth, -100 = all killed)
- PARTICULARS: 10 µM unless noted
The panel holds about 83,000 compounds, 20% with a hit somewhere; the sample as a whole holds those more often.
Write it as a number; the unit % goes unstated.

Identify the reported growth for the following entry. O=C1C[C@H](N2C(=O)c3ccccc3S2(=O)=O)C2CO[C@@H]1O2
103

Identify the reported growth for the following entry. C=C1CCC2C3(C)COC(c4cccc(Cl)c4)OC3CCC2(C)C1/C=C/C1=CCOC1=O (stereo unspecified)
90.2

Identify the reported growth for the following entry. CN(C)c1ccc(C2Nc3ccccc3-n3cccc32)cc1 (stereo unspecified)
91.9

Identify the reported growth for the following entry. Oc1c(Cl)cc(Cl)cc1CNc1nccnn1
99.3

Identify the reported growth for the following entry. COc1cc(/C=N\NC(=O)CN2CCN(c3cc4c(cc3F)c(=O)c(C(=O)N/N=C/c3ccc(O)c(OC)c3)cn4C3CC3)CC2)ccc1O
31.7

Identify the reported growth for the following entry. COc1ccc(/C=N\NC(=O)c2ccncc2)cc1O
99.3

Identify the reported growth for the following entry. O=S(=O)(NCCCNc1cc(-c2cn(-c3ccccc3)nc2-c2ccccc2)ccn1)c1ccc(C(F)(F)F)cc1
66.8

Identify the reported growth for the following entry. O=C(Nc1ccc(Nc2cc(Nc3ccccc3)ncn2)cc1)Nc1cc(C(F)(F)F)ccc1F
61.9

Identify the reported growth for the following entry. CCN(CC)CCC(=O)c1ccc(OC)c2ccccc12
90.9

Identify the reported growth for the following entry. CN1Cc2c(cc(CN3CCCCC3)n2C)C(c2ccc(Br)cc2)C1 (stereo unspecified)
91.5

Identify the reported growth for the following entry. Cc1cc2cc3cc(C)c(N(C)C)cc3nc2cc1N(C)C
22.3
